assayMethodText: Pharmacokinetics in Sprague-Dawley rats, 2-in-1 dosing
Assay type: in vivo
conditionSummary: Sprague-Dawley, rat, plasma, iv, 1 mg/kg, intravenous 1 mg/kg, single dose, plasma (Table 2); read-out: t1/2 (converted)
recordedEndpoint: half-life (h)
Lab book: enter the figure in h, no units written.

Sample records with half-life:
Cc1nc(Nc2ncc(C(=O)Nc3c(C)cccc3Cl)s2)cc(N2CCN(CCO)CC2)n1 [Dasatinib, reference compound] : 1.5
[2H]c1cc(C)c(NC(=O)c2cnc(Nc3cc(N4CC[C@@H](O)C4)nc(C)n3)s2)c(Cl)c1 [Compound V] : 1.4
[2H]c1cc(C)c(NC(=O)c2cnc(Nc3cc(N4CCN(CCO)CC4)nc(C)n3)s2)c(Cl)c1 [Compound III] : 1.6

Moving on to the next compound.
Data request: Please give the measured half-life for this compound: [2H]c1cc(C)c(NC(=O)c2cnc(Nc3cc(N4CC[C@H](O)C4)nc(C)n3)s2)c(Cl)c1 [Compound IV]
Data returned: 1.4

Data origin, for the record: patent US20180099961A1
